Source listed as ChEMBL document CHEMBL1250518.

- target.desc: Glucocorticoid receptor (Homo sapiens)
- Sequence (P04150 whole entry): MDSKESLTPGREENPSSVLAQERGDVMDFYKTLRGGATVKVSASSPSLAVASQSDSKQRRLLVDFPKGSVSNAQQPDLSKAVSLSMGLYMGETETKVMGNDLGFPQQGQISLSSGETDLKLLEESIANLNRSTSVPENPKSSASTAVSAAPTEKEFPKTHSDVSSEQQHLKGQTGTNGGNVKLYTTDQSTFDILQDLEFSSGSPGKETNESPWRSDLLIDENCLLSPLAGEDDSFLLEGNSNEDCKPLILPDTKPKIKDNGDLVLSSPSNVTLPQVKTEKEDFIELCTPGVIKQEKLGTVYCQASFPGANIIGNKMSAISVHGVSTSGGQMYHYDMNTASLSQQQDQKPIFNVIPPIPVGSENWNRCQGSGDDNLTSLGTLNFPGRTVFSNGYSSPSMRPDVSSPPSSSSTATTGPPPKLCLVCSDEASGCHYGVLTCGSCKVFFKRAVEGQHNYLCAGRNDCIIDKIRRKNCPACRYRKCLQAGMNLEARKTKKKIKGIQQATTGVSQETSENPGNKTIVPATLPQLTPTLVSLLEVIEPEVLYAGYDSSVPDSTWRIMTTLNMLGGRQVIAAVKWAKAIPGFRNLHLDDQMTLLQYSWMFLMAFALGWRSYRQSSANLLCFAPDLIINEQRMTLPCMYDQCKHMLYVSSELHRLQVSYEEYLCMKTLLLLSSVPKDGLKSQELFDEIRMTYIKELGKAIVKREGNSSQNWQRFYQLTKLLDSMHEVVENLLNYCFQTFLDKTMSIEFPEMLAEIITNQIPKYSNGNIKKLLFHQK
- method: Transrepression activity at glucocorticoid receptor in HFF assessed as inhibition of IL-1-induced IL-6 production after 18 to 24 hrs by ELISA
- Type: cell-based
quantity: IC50 (nM)

{"compound": "COc1ccc(-c2cncnc2)cc1C(C)(C)C[C@@](O)(Cc1cc2ccncc2[nH]1)C(F)(F)F", "quantity": "IC50", "value.relation.sign": "=", "endpoint.result": 20}
{"compound": "COc1ccc(F)cc1C(C)(C)CC(O)(Cc1cc2ncccc2[nH]1)C(F)(F)F (stereo unspecified)", "quantity": "IC50", "value.relation.sign": "=", "endpoint.result": 120}
{"compound": "COc1ccc(F)cc1C(C)(C)CC(O)(Cc1cc2ccncc2[nH]1)C(F)(F)F (stereo unspecified)", "quantity": "IC50", "value.relation.sign": "=", "endpoint.result": 9.8}
{"compound": "CC(C)(CC(O)(Cc1cc2ccncc2[nH]1)C(F)(F)F)c1cc(-c2cccnc2)ccc1O (stereo unspecified)", "quantity": "IC50", "value.relation.sign": "=", "endpoint.result": 23}
{"compound": "CC(C)(CC(O)(Cc1cc2ccncc2[nH]1)C(F)(F)F)c1cc(-c2cncnc2)ccc1O (stereo unspecified)", "quantity": "IC50", "value.relation.sign": "=", "endpoint.result": 21}
{"compound": "COc1ccc(F)cc1C(C)(C)C[C@](O)(Cc1cc2ccncc2[nH]1)C(F)(F)F", "quantity": "IC50", "value.relation.sign": "=", "endpoint.result": 430}
{"compound": "COc1ccc(F)cc1C(C)(C)CC(O)(Cc1cc2ccccn2n1)C(F)(F)F (stereo unspecified)", "quantity": "IC50", "value.relation.sign": ">", "endpoint.result": 2000}
{"compound": "COc1ccc(F)cc1C(C)(C)C[C@@](O)(Cc1cc2ccncc2[nH]1)C(F)(F)F", "quantity": "IC50", "value.relation.sign": "=", "endpoint.result": 6}
{"compound": "CC(C)(C[C@@](O)(Cc1cc2ccncc2[nH]1)C(F)(F)F)c1cc(F)ccc1O", "quantity": "IC50", "value.relation.sign": "=", "endpoint.result": 3.3}
{"compound": "COc1ccc(-c2cccnc2)cc1C(C)(C)CC(O)(Cc1cc2ccncc2[nH]1)C(F)(F)F (stereo unspecified)", "quantity": "IC50", "value.relation.sign": "=", "endpoint.result": 30}
{"compound": "COc1ccc(F)cc1C(C)(C)CC(O)(Cc1cc2ccccc2[nH]1)C(F)(F)F (stereo unspecified)", "quantity": "IC50", "value.relation.sign": "=", "endpoint.result": 6.6}
{"compound": "COc1ccc(F)cc1C(C)(C)CC(O)(Cn1ccc2ncccc21)C(F)(F)F (stereo unspecified)", "quantity": "IC50", "value.relation.sign": "=", "endpoint.result": 2.8}
{"compound": "CC(C)(CC(O)(Cc1cc2ccncc2[nH]1)C(F)(F)F)c1ccccc1 (stereo unspecified)", "quantity": "IC50", "value.relation.sign": "=", "endpoint.result": 31}
{"compound": "CC(C)(C[C@@](O)(Cc1cc2cnccc2[nH]1)C(F)(F)F)c1cc(F)ccc1O", "quantity": "IC50", "value.relation.sign": "=", "endpoint.result": 3}
{"compound": "COc1ccc(-c2ccccc2)cc1C(C)(C)CC(O)(Cc1cc2ccncc2[nH]1)C(F)(F)F (stereo unspecified)", "quantity": "IC50", "value.relation.sign": "=", "endpoint.result": 40}
{"compound": "COc1ccc(F)cc1C(C)(C)CC(O)(Cc1cc2ccncc2o1)C(F)(F)F (stereo unspecified)", "quantity": "IC50", "value.relation.sign": ">", "endpoint.result": 2000}
{"compound": "CC(C)(CC(O)(Cc1cc2ccncc2[nH]1)C(F)(F)F)c1cc(Cl)cc2c1OCC2 (stereo unspecified)", "quantity": "IC50", "value.relation.sign": "=", "endpoint.result": 17}
{"compound": "CC(C)(CC(O)(Cc1cc2ccncc2[nH]1)C(F)(F)F)c1cccc(F)c1 (stereo unspecified)", "quantity": "IC50", "value.relation.sign": "=", "endpoint.result": 99}
{"compound": "CC(C)(CC(O)(Cc1cc2ccncc2[nH]1)C(F)(F)F)c1cc(-c2ccccc2)ccc1O (stereo unspecified)", "quantity": "IC50", "value.relation.sign": "=", "endpoint.result": 15}
{"compound": "COc1ccc(F)cc1C(C)(C)C[C@@](O)(Cc1cc2cnccc2[nH]1)C(F)(F)F", "quantity": "IC50", "value.relation.sign": "=", "endpoint.result": 2}
{"compound": "COc1ccc(F)cc1C(C)(C)CC(O)(Cc1cc2cccnc2[nH]1)C(F)(F)F (stereo unspecified)", "quantity": "IC50", "value.relation.sign": ">", "endpoint.result": 2000}
{"compound": "CC(C)(CC(O)(Cc1cc2ccncc2[nH]1)C(F)(F)F)c1cccc2c1OCC2 (stereo unspecified)", "quantity": "IC50", "value.relation.sign": "=", "endpoint.result": 15}
{"compound": "CC(C)(CC(O)(Cc1cc2ccncc2[nH]1)C(F)(F)F)c1cc(F)cc2c1OCC2 (stereo unspecified)", "quantity": "IC50", "value.relation.sign": "=", "endpoint.result": 9.3}
{"compound": "COc1ccc(F)cc1C(C)(C)CC(O)(Cc1cc2cnccc2[nH]1)C(F)(F)F (stereo unspecified)", "quantity": "IC50", "value.relation.sign": "=", "endpoint.result": 8.2}
{"compound": "COc1ccc(-c2cncnc2)cc1C(C)(C)CC(O)(Cc1cc2ccncc2[nH]1)C(F)(F)F (stereo unspecified)", "quantity": "IC50", "value.relation.sign": "=", "endpoint.result": 50}
{"compound": "COc1ccc(F)cc1C(C)(C)CC(O)(Cc1cc2ccncc2s1)C(F)(F)F (stereo unspecified)", "quantity": "IC50", "value.relation.sign": "=", "endpoint.result": 35}
